biological target: Luciferin 4-monooxygenase (Photinus pyralis) (UniProt P08659); assay: qHTS Assay for Inhibitors of Firefly Luciferase; conditions: purified firefly luciferase, luminescence, 8 min; series mostly up to 57.1 µM; note: % is set by controls: 0 for no effect and ±100 for the full control effect; nearly all actives have a fitted effect of over 40% in size
Sequence (P08659 whole entry, looked up): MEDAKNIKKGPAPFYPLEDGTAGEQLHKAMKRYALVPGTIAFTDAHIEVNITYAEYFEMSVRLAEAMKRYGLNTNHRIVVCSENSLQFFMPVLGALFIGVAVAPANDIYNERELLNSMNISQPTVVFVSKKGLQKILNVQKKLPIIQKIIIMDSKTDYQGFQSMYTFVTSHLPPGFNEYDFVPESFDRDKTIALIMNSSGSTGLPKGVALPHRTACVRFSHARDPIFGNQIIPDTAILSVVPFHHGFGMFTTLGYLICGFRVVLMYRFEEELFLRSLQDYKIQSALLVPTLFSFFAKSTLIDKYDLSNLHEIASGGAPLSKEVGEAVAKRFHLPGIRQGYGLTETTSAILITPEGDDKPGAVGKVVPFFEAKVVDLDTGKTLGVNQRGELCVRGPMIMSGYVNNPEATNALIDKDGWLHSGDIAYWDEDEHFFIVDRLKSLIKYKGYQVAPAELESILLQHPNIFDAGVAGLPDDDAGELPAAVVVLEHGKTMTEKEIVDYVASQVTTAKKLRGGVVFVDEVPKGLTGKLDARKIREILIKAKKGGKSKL
Hit rate of the full screen: of about 72,000 compounds, about 1,600 (2.2%) were called active. For the sample, actives were picked, then their nearest neighbours and some compounds at random.
measured.property: activity change, negative = inhibition

molecule=COc1ccc2[nH]c3cc4c(=O)c5cc(OC)ccc5[nH]c4cc3c(=O)c2c1 value_measured="-0.432% [at 11.4 µM] (inactive)"
molecule=O=C(c1ccncc1)N1CCC2(CCCN(C(c3ccccc3)c3ccccc3)C2)CC1 value_measured="-0.104% [at 11.4 µM] (inactive)"
molecule=Cc1c(S(=O)(=O)O)ccc(N=Nc2c(O)c(C(=O)O)cc3ccccc23)c1Cl value_measured="-2.84% [at 11.4 µM] (inactive)"

Tell me measured activity change, negative = inhibition for `O=c1c(-c2ccc(F)cc2)nc2cncnc2n1-c1ccccc1` please.
0.918% [at 11.4 µM] (inactive)

Answer with the recorded activity change, negative = inhibition of `O=c1c(-c2ccc(F)c(F)c2)nc2cncnc2n1-c1ccccc1` only.
1.37% [at 11.4 µM] (inactive)

Quickly give me recorded activity change, negative = inhibition for `COCCNc1ccnc(-c2cccc(NS(C)(=O)=O)c2)n1`
0.411% [at 2.29 µM] (inactive)
